# target_of_assay: 5-HT2A (Homo sapiens)
# Sequence (P28223 whole entry): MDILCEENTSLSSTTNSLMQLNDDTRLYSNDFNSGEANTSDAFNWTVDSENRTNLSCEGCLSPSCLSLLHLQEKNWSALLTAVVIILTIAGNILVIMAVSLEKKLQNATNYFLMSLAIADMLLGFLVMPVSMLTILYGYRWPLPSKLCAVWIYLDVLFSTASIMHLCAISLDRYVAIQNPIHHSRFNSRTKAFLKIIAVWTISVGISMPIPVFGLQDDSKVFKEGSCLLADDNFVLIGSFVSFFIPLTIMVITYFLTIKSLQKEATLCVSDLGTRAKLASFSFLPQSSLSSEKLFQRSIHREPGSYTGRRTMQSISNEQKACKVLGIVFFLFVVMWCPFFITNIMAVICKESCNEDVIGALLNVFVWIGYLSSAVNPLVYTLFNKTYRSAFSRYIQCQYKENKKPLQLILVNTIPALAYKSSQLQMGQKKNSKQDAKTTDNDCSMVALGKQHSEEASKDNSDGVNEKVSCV
# assay_comment: 5-HT2 Gq-Dissociation BRET assay
# Assay type: cell-based
# Set-up: expressed in transfected cells; host or cells: HEK293T
# assay_context: HEK293T cells, 1 hour at 37° C.
Where a name gives a salt, the structure may show the parent alone.
Documented IC50 across a set of compounds
Return type: number; implicit unit nM.

Consider the worked cases shown below.
{"compound": "CCCn1cc(CCN(C)C)c2c(O)cccc21", "scale_unit": "nM", "IC50": 1150}
{"compound": "Cn1cc(CCNCC(F)F)c2c(O)cccc21 [Example 22, hydrochloride]", "scale_unit": "nM", "IC50": 4200}
{"compound": "COc1ccccc1CN(C)CCc1cn(C)c2cccc(O)c12 [Example 25, hydrochloride]", "scale_unit": "nM", "IC50": 770}

stdin: Entry `CN(C)CCc1cn(CC(F)F)c2cccc(O)c12` has what IC50?
stdout: 188

stdin: Entry CCCCn1cc(CCN(C)C)c2c(O)cccc21 [Example 6, reference compound] has what IC50?
stdout: 1800

stdin: Entry `CN(C)CCc1cn(C2COC2)c2cccc(O)c12` has what IC50?
stdout: 4000

stdin: Entry CN(CCc1cn(C)c2cccc(O)c12)CC1CC1 [Example 16, hydrochloride] has what IC50?
stdout: 140

stdin: Entry CC(C)N(CCc1cn(C)c2cccc(O)c12)C(C)C [Example 14, hydrochloride] has what IC50?
stdout: 253

stdin: Entry CCN(CC)CCc1cn(C)c2cccc(O)c12 [Example 18, hydrochloride] has what IC50?
stdout: 241

====

# target_of_assay: 5-HT2C (Homo sapiens, UniProt P28335)
# Sequence (P28335 33-458): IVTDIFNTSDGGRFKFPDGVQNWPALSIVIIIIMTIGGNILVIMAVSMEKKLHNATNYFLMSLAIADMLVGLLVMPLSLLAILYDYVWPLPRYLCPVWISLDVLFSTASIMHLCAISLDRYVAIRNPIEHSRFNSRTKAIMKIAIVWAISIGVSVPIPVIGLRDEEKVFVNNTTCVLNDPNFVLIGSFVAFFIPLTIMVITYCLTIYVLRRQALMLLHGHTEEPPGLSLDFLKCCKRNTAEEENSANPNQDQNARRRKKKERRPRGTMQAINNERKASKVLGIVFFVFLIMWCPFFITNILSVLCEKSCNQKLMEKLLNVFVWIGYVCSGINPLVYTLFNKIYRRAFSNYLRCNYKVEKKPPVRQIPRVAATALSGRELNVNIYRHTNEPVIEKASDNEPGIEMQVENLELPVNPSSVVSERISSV
# assay_comment: cell-based
# Parameters: expressed in transfected cells; host or cells: HEK293T
# assay_context: read-out: % efficacy vs 5-HT@ 100%, 5-HT2C
Counter-ions that a name gives are not always drawn.
Mark label 1 for reported Emax of 70% or greater; mark label 0 for anything smaller.

{"molecule": "CN(C)CCc1cn(CC2CC2)c2cccc(O)c12", "assigned_class": "label 0"}
{"molecule": "CC(C)N(C)CCc1cn(C)c2cccc(O)c12 [Example 13, hydrochloride]", "assigned_class": "label 1"}
{"molecule": "CN(C)CCc1cn(CC(F)F)c2cccc(O)c12", "assigned_class": "label 1"}
{"molecule": "Cn1cc(CCNCC2CC2)c2c(O)cccc21 [Example 21, hydrochloride]", "assigned_class": "label 0"}
{"molecule": "CCCCn1cc(CCN(C)C)c2c(O)cccc21 [Example 6, reference compound]", "assigned_class": "label 0"}

stdin: Is it the case that `CN(C)CCc1cn(C2COC2)c2cccc(O)c12` has Emax reaching or exceeding 70%?
stdout: label 0

stdin: Is it the case that Cn1cc(CCNCC(F)F)c2c(O)cccc21 [Example 22, hydrochloride] has Emax reaching or exceeding 70%?
stdout: label 1

stdin: Is it the case that CN(CCc1cn(C)c2cccc(O)c12)CC(F)F [Example 17, hydrochloride] has Emax reaching or exceeding 70%?
stdout: label 0

====

# target_of_assay: 5-HT2C (Homo sapiens)
# assay_comment: cell-based
# Set-up: expressed in transfected cells; host or cells: HEK293T
# assay_context: HEK293T cells, 1 hour at 37° C.; read-out: IC50 nM 5-HT2 Gq Dissociation BRET assay, 5-HT2C
Structures can show the parent of a compound that is named as a salt.
measured_quantity: IC50 (nM)
Return type: number; implicit unit nM.

stdin: Entry CCN(CC)CCc1cn(C)c2cccc(O)c12 [Example 18, hydrochloride] has what IC50?
stdout: 31

stdin: Entry `CCCn1cc(CCN(C)C)c2c(O)cccc21` has what IC50?
stdout: 3

stdin: Entry Cn1cc(CCNCC2CC2)c2c(O)cccc21 [Example 21, hydrochloride] has what IC50?
stdout: 15

stdin: Entry CCN(C)CCc1cn(C)c2cccc(O)c12 [Example 12, hydrochloride] has what IC50?
stdout: 2.8

stdin: Entry CN(CCc1cn(C)c2cccc(O)c12)CC(F)F [Example 17, hydrochloride] has what IC50?
stdout: 833
